This listing pairs substances with measured EC50.
# Study System: hGLP-1R (Homo sapiens)
# Sequence (P43220 24-463): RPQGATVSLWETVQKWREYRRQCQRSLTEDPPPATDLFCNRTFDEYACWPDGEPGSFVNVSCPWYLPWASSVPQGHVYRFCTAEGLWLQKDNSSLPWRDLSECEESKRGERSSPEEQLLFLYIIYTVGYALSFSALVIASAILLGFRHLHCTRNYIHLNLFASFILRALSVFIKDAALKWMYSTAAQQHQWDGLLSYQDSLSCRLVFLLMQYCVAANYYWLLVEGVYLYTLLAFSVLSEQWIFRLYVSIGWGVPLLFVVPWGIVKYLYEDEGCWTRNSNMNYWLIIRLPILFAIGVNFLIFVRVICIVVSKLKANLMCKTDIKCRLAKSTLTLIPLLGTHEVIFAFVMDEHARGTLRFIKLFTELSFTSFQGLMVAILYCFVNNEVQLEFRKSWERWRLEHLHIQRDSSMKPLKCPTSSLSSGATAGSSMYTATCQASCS
# Test Details: Functional cAMP activation in the presence of 0.1% casein (no HSA);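 note: intracellular cAMP rise after 30 min at 37 °C read by HTRF, normalized between buffer only (0%) and maximal control ligand (100%), four-parameter variable-slope fit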
# Format: cell-based
# Test Parameters: read-out: Relative cAMP EC50, hGLP-1R
Starred links: 1 amine or outer side, 2 acyl side, 3 side chain; linkers in the order of their positions; H or OH if unused. Non-standard residues stand in square brackets, D forms with d. Groups on a side chain read outwards from the residue. *: point of attachment. C18 diacid = O=C(O)CCCCCCCCCCCCCCCCC(=O)*; αMePhe(2-F) = C[C@](N)(Cc1ccccc1F)C(=O)O; γGlu = O=C(O)[C@H](CCC(=O)[*:2])N[*:1]; αMe4Pal = C[C@](N)(Cc1ccncc1)C(=O)O; αMeY = C[C@](N)(Cc1ccc(O)cc1)C(=O)O; 4Pal = N[C@@H](Cc1ccncc1)C(=O)O; αMeL = CC(C)C[C@](C)(N)C(=O)O; αMeS = C[C@](N)(CO)C(=O)O; Orn = NCCC[C@H](N)C(=O)O; AEEA = NCCOCCOCC(=O)O; Aib = CC(C)(N)C(=O)O
Property Measured: EC50 (pM)

Substance: H-Y[Aib]QGT[αMePhe(2-F)]TSD[4Pal][αMeS]I[αMeL]LD[Orn]K([γGlu-γGlu-C18 diacid])AQ[Aib][Orn]FI[dE][αMeY]LQEGGPSSGEPPPEGSEE-NH2 [Example 585]
Numeric Result: 601
--
Substance: H-Y[Aib]QGT[αMePhe(2-F)]TSD[4Pal]SI[αMeL]LD[Orn]K([AEEA-γGlu-C18 diacid])AQ[αMe4Pal]EFI[dE][αMeY]LAEGGPSSGAPPPSGS-NH2 [Example 642]
Numeric Result: 474
--
Substance: H-Y[Aib]QGT[αMePhe(2-F)]TSD[4Pal][αMeS]I[αMeL]LD[Orn]K([AEEA-AEEA-γGlu-C18 diacid])AQ[Aib][Orn]FI[dE][αMeY]LIEGGPSSGAPEPSEG-NH2 [Example 472]
Numeric Result: 171
--
Substance: H-Y[Aib]QGT[αMePhe(2-F)]TSD[4Pal][αMeS]I[αMeL]LD[Orn]K([AEEA-γGlu-C18 diacid])AQ[Aib][Orn]FI[dE][αMeY]LIEGGPSSGEPPPSEG-NH2 [Example 401]
Numeric Result: 213
--
Substance: H-Y[Aib]QGT[αMePhe(2-F)]TSD[4Pal][αMeS]I[αMeL]LD[Orn]K([AEEA-γGlu-γGlu-C18 diacid])AQ[Aib][Orn]FIEYLIEAGPSSGEPPPEEG-NH2 [Example 485]
Numeric Result: 277
--
Substance: H-Y[Aib]QGT[αMePhe(2-F)]TSD[4Pal]SILLDKK([γGlu-γGlu-C18 diacid])AQ[Aib]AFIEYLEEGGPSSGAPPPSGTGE-NH2 [Example 510]
Numeric Result: 710
--
Substance: H-Y[Aib]QGT[αMePhe(2-F)]TSD[4Pal]SILLDKK([γGlu-γGlu-C18 diacid])AQ[Aib]AFIEYLEEGGPSSGAPPPEGTE-NH2 [Example 659]
Numeric Result: 1310
--
Substance: H-Y[Aib]QGT[αMePhe(2-F)]TSD[4Pal]SILLDKK([γGlu-γGlu-C18 diacid])AQ[Aib]AFIEYLEEGGPSSGAPPPSGEGE-NH2 [Example 621]
Numeric Result: 1280
--
Substance: H-Y[Aib]QGT[αMePhe(2-F)]TSD[4Pal]SI[αMeL]LD[Orn]K([AEEA-γGlu-C18 diacid])AQ[αMe4Pal]EFI[dE][αMeY]LLEGGPSSGEPPPSGS-NH2 [Example 645]
Numeric Result: 596
--
Substance: H-Y[Aib]QGT[αMePhe(2-F)]TSD[4Pal][αMeS]I[αMeL]LD[Orn]K([AEEA-γGlu-C18 diacid])AQ[αMe4Pal]EFI[dE][αMeY]LVEGGPSSGAPPPSGE-NH2 [Example 749]
Numeric Result: 293
